koff listing for selected binders.
Molecular target: T1, Ebola virus GP with a C-terminal polyhistidine tag (Sino Biologicals, Catalog #40442-V08B1) (Ebola virus, UniProt P87666 33-650)
T1 construct: also called EbolaGP.his; Ebola virus GP.his
Assay: SPR 37C, mAb captured
Give a bare numeral; the unit s⁻¹ is implied.

Query: koff; subject: H1H17142P (antibody, V domains shown) VH: EVQLVESGGGLVQPGGSLRLSCAASGFTFSSYAMTWVRQAPGKGLEWVSSISGSGTSTYYADSVKGRFTISRDNSKNTLYLQMNSLRAEDTALYYCSRDIYTWNFLSLIGGMDVWGQGTTVTVSS VL: DIQMTQSPSSLSASVGDRVTITCRASQGIRIDLGWYQQKPGKAPNRLIYAASSLQGGVPSRFSGSGSGTEFTLTISSLQPEDFATYYCLQQNSYPWTFGQGTKVEIK
0.000174

Query: koff; subject: H1H17203P (antibody, V domains shown) VH: QVQLVESGGGVVQPGRSLRLSCAASGFTFNNYGMHWVRQAPGMGLEWVAVIWHDGSDKYYADSVKGRFTISRDNSKNTLYLQMNSLRAEDTAVYYCARNWNLFDYWGQGTLVTVSS VL: DIQMTQSPSSLSASVGDRITITCRASQSISTYLHWYQQKPGKAPKLLIYAASTLQSGVPSRFSGSGSGTDFTLTISSLQPEDFATYYCQQSFSTPPINFGQGTKLEIK
0.00119

Query: koff; subject: H1H17214P (antibody, V domains shown) VH: EVQLVESGGGLVQPGGSLRLSCAASKFTFDTFAMSWVRQAPGKGLEWVSFISSSGGRTDYVDSVKGRFTISRDNSKNTLYLQMNSLRAEDTAVYYCAKERTIFGVLILGPDNYGMDVWGQGTTVTVSS VL: DIQMTQSPSSLSAFVGDRVTITCRASQSISTYLNWYQQKPGKAPKLLIYAASSLQSGVSSRFSGSGSGTDFTLTISSLQPEDFATYYCQQSYSAPPITFGQGTRLEIK
0.000154

More entries:
Query: koff; subject: H1H17223P (antibody, V domains shown) VH: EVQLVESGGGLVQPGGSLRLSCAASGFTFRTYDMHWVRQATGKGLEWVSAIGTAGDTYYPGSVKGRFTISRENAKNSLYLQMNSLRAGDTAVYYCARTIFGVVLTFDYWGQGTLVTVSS VL: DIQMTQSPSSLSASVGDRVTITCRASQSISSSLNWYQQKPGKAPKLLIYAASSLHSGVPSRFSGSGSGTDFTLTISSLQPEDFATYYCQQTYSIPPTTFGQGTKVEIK
0.000242

# credit: patent US20160215040A1
